A set of compounds tested on human V1A receptor (Homo sapiens, UniProt P37288), with measured Ki:
READOUT_KIND: Ki (nM)

compound="Clc1ccc2c(c1)CCOCc1nnc(C3CCN(c4ccccn4)CC3)n1-2 [Example 27]" readout_number=1.25
compound="CN1CCc2cc(Cl)ccc2-n2c(nnc2C2CCN(c3ncccn3)CC2)C1 [Example 103]" readout_number=2.02
compound="CN(C)S(=O)(=O)N1Cc2cc(Cl)ccc2-n2c(nnc2C2CCN(c3ncccn3)CC2)C1 [Example 100]" readout_number=0.77

Measured values drawn from patent US7119088B2 for this set.
